system: NCI-H23 lung; experiment: NCI tumour cell line growth inhibition, 48 h
Reported TGI by item:
MEASURED_ENDPOINT: TGI

{"MOLECULE": "CCOC(=O)C(c1ccsc1)P(=O)(OCC)OCC (stereo not given)", "READING": "36.7 µM"}
{"MOLECULE": "O=C(O)CC(CC(=O)O)n1cccc1", "READING": "> 100 µM"}
{"MOLECULE": "C[C@H]1CCC/C=C/[C@@H]2C[C@H](O)C[C@H]2[C@H](O)C(O)C(O)C(=O)O1 (stereo not given in full)", "READING": "> 100 µM"}
{"MOLECULE": "NC(=O)c1c(NC(=O)c2ccc(C(F)(F)F)cc2Cl)sc2c1CCC(=O)C2", "READING": "1.68 µM"}
{"MOLECULE": "CCSc1c2cc(OC)ccc2nc2ccc(OC)cc12", "READING": "> 86.1 µM"}
{"MOLECULE": "COC(=O)c1c(C)c2c(c(C)c1O)OC(=O)c1c(C)cc(O)c(C=O)c1O2", "READING": "> 100 µM"}
{"MOLECULE": "CCCOC(=O)C1C(c2ccc(OC)cc2)NC(c2ccc(OC)cc2)C(C(=O)OCCC)S1(=O)=O (stereo not given)", "READING": "> 100 µM"}
{"MOLECULE": "O=C(CC(=O)n1nc(-c2ccccc2)c(N=Nc2ccc([N+](=O)[O-])cc2)c1-c1ccccc1)Nc1ccc(Cl)cc1", "READING": "> 100 µM"}
{"MOLECULE": "COP(=O)(OC)[C@@](O)(c1ccccc1)[C@@H](O)[C@@H](O)c1ccccc1", "READING": "> 100 µM"}
{"MOLECULE": "CCc1n[nH]c(=O)n1N", "READING": "> 100 µM"}

---

test system: NCI/ADR-RES ovarian; assay: NCI tumour cell line growth inhibition, 48 h
MEASURED_ENDPOINT: TGI

{"MOLECULE": "CN(C)Cc1cc(C(=O)/C=C/c2ccc(Cl)cc2Cl)cc(CN(C)C)c1O", "ASSAY_TARGET": "NCI/ADR-RES ovarian", "MEASURED_ENDPOINT": "TGI", "READING": "5.7 µM"}
{"MOLECULE": "Nc1ncnc2occ(-c3ccc(NC(=O)Nc4cccc(C(F)(F)F)c4)cc3)c12", "ASSAY_TARGET": "NCI/ADR-RES ovarian", "MEASURED_ENDPOINT": "TGI", "READING": "16.2 µM"}
{"MOLECULE": "O=C(NCCc1nccs1)c1cnc2c(S)cccc2c1", "ASSAY_TARGET": "NCI/ADR-RES ovarian", "MEASURED_ENDPOINT": "TGI", "READING": "> 100 µM"}
{"MOLECULE": "CC(C)OC(=O)NNc1c(Cl)cc(Cl)cc1Cl", "ASSAY_TARGET": "NCI/ADR-RES ovarian", "MEASURED_ENDPOINT": "TGI", "READING": "> 100 µM"}
{"MOLECULE": "CC(C)(CO)CNc1nc(N)nc(Cl)c1C=O", "ASSAY_TARGET": "NCI/ADR-RES ovarian", "MEASURED_ENDPOINT": "TGI", "READING": "> 100 µM"}
{"MOLECULE": "O=C(O)CC(CC(=O)O)n1cccc1", "ASSAY_TARGET": "NCI/ADR-RES ovarian", "MEASURED_ENDPOINT": "TGI", "READING": "> 100 µM"}
{"MOLECULE": "CCCCCCCCCCCC(=O)OCC(O)CO (stereo not given)", "ASSAY_TARGET": "NCI/ADR-RES ovarian", "MEASURED_ENDPOINT": "TGI", "READING": "> 100 µM"}
{"MOLECULE": "CCOC1OC(CO[Si](C)(C)C(C)(C)C)C(O)CC1n1ccc(=O)[nH]c1=O (stereo not given)", "ASSAY_TARGET": "NCI/ADR-RES ovarian", "MEASURED_ENDPOINT": "TGI", "READING": "> 100 µM"}
{"MOLECULE": "CC1=CC2=C(C=O)C(=O)[C@](C)(O)[C@@H](O)C2=CO1", "ASSAY_TARGET": "NCI/ADR-RES ovarian", "MEASURED_ENDPOINT": "TGI", "READING": "> 100 µM"}
{"MOLECULE": "O=C1c2c[n+](Cc3ccccc3)ccc2-c2nc3ccccc3c3ccnc1c23", "ASSAY_TARGET": "NCI/ADR-RES ovarian", "MEASURED_ENDPOINT": "TGI", "READING": "33.3 µM"}
{"MOLECULE": "C#CCNC(CCCN=C(N)N)C(=O)O (stereo not given)", "ASSAY_TARGET": "NCI/ADR-RES ovarian", "MEASURED_ENDPOINT": "TGI", "READING": "> 100 µM"}
{"MOLECULE": "Cc1nc2sc(C(=O)Nc3cccc4c3OCCO4)c(N)c2cc1C(C)O (stereo not given)", "ASSAY_TARGET": "NCI/ADR-RES ovarian", "MEASURED_ENDPOINT": "TGI", "READING": "> 100 µM"}
{"MOLECULE": "N#C/C(=C\\c1ccccn1)c1nc2ccccc2o1", "ASSAY_TARGET": "NCI/ADR-RES ovarian", "MEASURED_ENDPOINT": "TGI", "READING": "> 100 µM"}
{"MOLECULE": "COc1cc2c(/C=C3/C(=O)Nc4cc(C)c(O)cc43)c(Cl)[nH]c2cc1C", "ASSAY_TARGET": "NCI/ADR-RES ovarian", "MEASURED_ENDPOINT": "TGI", "READING": "12.8 µM"}
{"MOLECULE": "CSc1cc(Cl)c(C(=O)Nc2ccccc2)cc1S(=O)(=O)n1cc[nH]c1=O", "ASSAY_TARGET": "NCI/ADR-RES ovarian", "MEASURED_ENDPOINT": "TGI", "READING": "> 100 µM"}
{"MOLECULE": "CCOc1ccc(NC(=O)/C=C/c2ccco2)cc1", "ASSAY_TARGET": "NCI/ADR-RES ovarian", "MEASURED_ENDPOINT": "TGI", "READING": "> 100 µM"}
{"MOLECULE": "O=C1Sc2sc(=S)sc2SC1c1ccccc1 (stereo not given)", "ASSAY_TARGET": "NCI/ADR-RES ovarian", "MEASURED_ENDPOINT": "TGI", "READING": "> 100 µM"}
{"MOLECULE": "CCc1n[nH]c(=O)n1N", "ASSAY_TARGET": "NCI/ADR-RES ovarian", "MEASURED_ENDPOINT": "TGI", "READING": "> 100 µM"}
{"MOLECULE": "COc1cccc(/C=N/[N+](C)(C)C)c1O", "ASSAY_TARGET": "NCI/ADR-RES ovarian", "MEASURED_ENDPOINT": "TGI", "READING": "> 10 µM"}
{"MOLECULE": "O=C(O)CNc1ncc2c(n1)-c1ccccc1OC2", "ASSAY_TARGET": "NCI/ADR-RES ovarian", "MEASURED_ENDPOINT": "TGI", "READING": "> 100 µM"}
{"MOLECULE": "C=CC(=O)N1CCN(c2nc(OC[C@@H]3CCCN3C)nc3c(F)c(-c4nc(N)cc(C)c4C(F)(F)F)c(Cl)cc23)[C@@H](C)C1", "ASSAY_TARGET": "NCI/ADR-RES ovarian", "MEASURED_ENDPOINT": "TGI", "READING": "27.8 µM"}
{"MOLECULE": "NC(N)=N/N=C/c1c(Cl)nc2n1CCS2", "ASSAY_TARGET": "NCI/ADR-RES ovarian", "MEASURED_ENDPOINT": "TGI", "READING": "> 100 µM"}
{"MOLECULE": "Cc1cc(NS(=O)(=O)c2ccc(NC(=O)c3ccc4nc5ccccc5c(Nc5ccc(S(N)(=O)=O)cc5)c4c3)cc2)no1", "ASSAY_TARGET": "NCI/ADR-RES ovarian", "MEASURED_ENDPOINT": "TGI", "READING": "> 100 µM"}
{"MOLECULE": "Cc1ccc(S(=O)(=O)NC(=O)Nc2ncn[nH]2)cc1", "ASSAY_TARGET": "NCI/ADR-RES ovarian", "MEASURED_ENDPOINT": "TGI", "READING": "> 100 µM"}
{"MOLECULE": "O=C(N/N=C\\c1ccc([N+](=O)[O-])cc1)Nc1ccc2ccccc2c1", "ASSAY_TARGET": "NCI/ADR-RES ovarian", "MEASURED_ENDPOINT": "TGI", "READING": "> 100 µM"}
